# Tested on: MOLM-13
# METHOD DESCRIPTION: cell viability (% survival relative to DMSO control, bortezomib = 0%); higher = less cytotoxic
# STUDY CONDITIONS: 1000 nM; 72 h
cell viability values by entry
Field: numeric (%). Do not append units.

Before answering, review these 5 worked examples.
CNC(=C[N+](=O)[O-])NCCSCc1ccc(CN(C)C)o1	102
O=C(c1c2ccccc2cc2ccccc12)N1CCC(N2CCC[C@@H](C(=O)N3CCOCC3)C2)CC1	62.4
O=C(/C=C/c1cccnc1)NCCCCC1CCN(C(=O)c2ccccc2)CC1	0.204
C=C1NC(=O)c2cc(CN(C)c3ccc(C(=O)N[C@@H](CCC(=O)O)C(=O)O)s3)ccc2N1	1.25
Cl.OC[C@H]1NC[C@H](O)[C@@H](O)[C@H]1O	116

**Query** Consider the compound shown here: O=c1[nH]c(=O)n([C@H]2C[C@H](O)[C@@H](CO)O2)cc1I What is its recorded cell viability?
**Result** 83.5

**Query** And what about the compound CCCCCCCCCCCCCCOc1ccc(C(=O)O)o1 ?
**Result** 82.7

**Query** And what about the compound c1ccc2c(c1)SCc1c-2[nH]c2ccccc12 ?
**Result** 78.6
